Protocol Notes: Cytotoxicity against human IMR90 cells after 24 hrs by MTT assay
Format: cell-based, IMR-90
Test Settings: read-out: ID50
Catalogue of molecules with associated CC50 at 24 h

Take a look at these entries with their results.
[[record]]
molecule = "CC(=O)O[C@H]1C[C@@H](C)[C@@H]2[C@@H](O)OC[C@@]3(C)CC(C)(C)[C@H]1[C@]23O [DIHYDROBOTRYDIAL]"
reported_result = "> 10 µg/mL"

[[record]]
molecule = "C[C@@H]1C[C@H](O)[C@H]2C(C)(C)C[C@]3(C)COC[C@@H]1[C@@]23O"
reported_result = "> 10 µg/mL"

[[record]]
molecule = "CC(=O)O[C@H]1C[C@@H](C)[C@@H]2COC(C)(C)OC[C@@]3(C)CC(C)(C)[C@H]1[C@]23O"
reported_result = "> 10 µg/mL"

[[record]]
molecule = "COC(=O)[C@@]1(C)CC(C)(C)[C@H]2C1=C(C=O)[C@H](C)C[C@@H]2O [METHYL BOTRYENALOATE]"
reported_result = "> 10 µg/mL"

[[record]]
molecule = "C=CC1=C(/C(=C\\C)CO)[C@@](C)(CO)CC1(C)C [SECOBOTRYTRIENDIOL]"
reported_result = "> 10 µg/mL"


Just so you know, measured CC50 at 24 h for C[C@@H]1CC=C2C(=C1C=O)[C@@](C)(C=O)CC2(C)C came out at 1 µg/mL

Just so you know, measured CC50 at 24 h for CC(=O)O[C@H]1C[C@@H](C)[C@H](C=O)[C@@]2(O)[C@@H]1C(C)(C)C[C@]2(C)C=O [BOTRYDIAL] came out at 10 µg/mL
